These data points were gathered from patent US20260116910A1.

Here the recorded MRGPRX4 activation, Average is given for each entry.
biological target: MRGPRX4 (Homo sapiens, UniProt Q96LA9); experiment: MRGPRX4 activation, Fluo-8 Ca2+ FLIPR assay in HEK293T cells stably expressing MRGPRX4; type: cell-based; parameters: key: fluorescence change dF/F0; conditions: E3-9, Conc. (Log[M]) −6.4
Sequence (Q96LA9 whole entry): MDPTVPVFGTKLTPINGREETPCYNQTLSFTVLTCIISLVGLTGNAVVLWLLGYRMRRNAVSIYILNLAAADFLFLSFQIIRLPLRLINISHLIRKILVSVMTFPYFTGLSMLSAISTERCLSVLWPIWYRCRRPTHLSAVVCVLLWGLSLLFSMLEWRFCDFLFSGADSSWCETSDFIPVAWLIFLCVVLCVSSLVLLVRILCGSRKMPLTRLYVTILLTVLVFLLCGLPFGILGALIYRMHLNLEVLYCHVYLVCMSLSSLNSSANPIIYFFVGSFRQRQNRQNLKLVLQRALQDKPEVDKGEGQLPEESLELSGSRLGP
The answer should be written as a number, with no unit following it.

given smiles: CC[C@H]1[C@@H](O)[C@@H]2[C@H](CC[C@]3(C)[C@@H]([C@H](C)CCN=C=S)CC[C@@H]23)[C@@]2(C)CCCC[C@@H]12
MRGPRX4 activation, Average: 0.013
//
given smiles: CCOC(=O)C(=O)NCC[C@@H](C)[C@H]1CC[C@H]2[C@@H]3[C@H](O)[C@H](CC)[C@@H]4CCCC[C@]4(C)[C@H]3CC[C@]12C
MRGPRX4 activation, Average: 0.013
//
given smiles: CC[C@H]1[C@@H](O)[C@@H]2[C@H](CC[C@]3(C)[C@@H]([C@H](C)CCNS(=O)(=O)CC(C)C)CC[C@@H]23)[C@@]2(C)CCCC[C@@H]12
MRGPRX4 activation, Average: 0.011
//
given smiles: CC[C@H]1[C@@H](O)[C@@H]2[C@H](CC[C@]3(C)[C@@H]([C@H](C)CCNC(=O)NS(=O)(=O)c4cc(F)cc(F)c4)CC[C@@H]23)[C@@]2(C)CCC(F)(F)C[C@@H]12
MRGPRX4 activation, Average: 0.018
//
given smiles: [2H]C1([2H])CC[C@@]2(C)[C@@H](C1)[C@@H](CC)[C@@H](O)[C@@H]1[C@@H]2CC[C@]2(C)[C@@H]([C@H](C)CCN=C=S)CC[C@@H]12
MRGPRX4 activation, Average: 0.013

The recorded MRGPRX4 activation, Average for CC[C@H]1[C@@H](O)[C@@H]2[C@H](CC[C@]3(C)[C@@H]([C@H](C)CCNC(=O)NS(=O)(=O)c4cc(F)cc(F)c4)CC[C@@H]23)[C@@]2(C)CC[C@H](F)C[C@@H]12 is 0.016

The recorded MRGPRX4 activation, Average for CC[C@H]1[C@@H](O)[C@@H]2[C@H](CC[C@]3(C)[C@@H]([C@H](C)CCNS(=O)(=O)C[C@]45CC[C@H](CC4=O)C5(C)C)CC[C@@H]23)[C@@]2(C)CCCC[C@@H]12 is 0.018

The recorded MRGPRX4 activation, Average for [2H]C1([2H])CC[C@@]2(C)[C@@H](C1)[C@@H](CC)[C@@H](O)[C@@H]1[C@@H]2CC[C@]2(C)[C@@H]([C@H](C)CCNC(=S)NS(=O)(=O)c3cccs3)CC[C@@H]12 is 0.020
